Biological target: T1, 4H3592-bA
T1 chain: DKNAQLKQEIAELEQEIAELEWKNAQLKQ
Assay: two-hybrid library CCNG1;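 further: natural log of median RNA to DNA barcode read ratio; higher means stronger binding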
Assay metric: interaction score

Some entries whose results are on file:
>>> print(df.to_string())
                                     binder       assay_metric     val
0  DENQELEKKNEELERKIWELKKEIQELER [4H1449-bH]  interaction score  -0.126
1  DENAQLEQKIAELKQKNAELKWKIAQLKQ [4H1406-bA]  interaction score   0.233
2  DKNAQLKQEIAELEQEIAELEWKNAQLKQ [4H3592-bA]  interaction score  -0.131
3  DENAQLEQKIAELKQKIAELKWENAQLEQ [4H1387-bA]  interaction score    2.02

[I] DENAQLEQEIAELEQKIAELKWKNAQLKQ [4H1072-bA]
[II] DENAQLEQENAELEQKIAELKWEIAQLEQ [4H1193-bA]
In: Lower value for measured interaction score? Options: I , II Returns: label corresponding to the selected item.
Out: II
